tested on: NCI-H460 lung; assay: NCI tumour cell line growth inhibition, 48 h
property: TGI

The cases that follow already have their TGI on record.
| compound | TGI |
| --- | --- |
| CCN(CC)CC1CN=C(N)O1 (stereo not given) | > 100 µM |
| c1ccc(SC23C4C5C6C4C2C6C53)nc1 (stereo not given) | > 100 µM |

// each compound listed below needs its TGI
1. COc1ccc(NC(C(N)=O)c2cc3cc(Br)ccc3nc2Cl)cc1 (stereo not given)
2. O=C(c1cccnc1)N1N=C(c2ccccc2)CC1(O)c1cc(F)c(Cl)cc1Cl (stereo not given)
3. CNC(=O)SCC(NC(=O)CCC(N)C(=O)O)C(=O)NCC(=O)O (stereo not given)
4. Cn1c2ccccc2c2cc(N3CCCC3)c3c(c21)C(=O)N(c1ccccc1)C3=O

> 100 µM
44.7 µM
> 100 µM
> 100 µM

// each compound listed below needs its TGI
1. O=C(C/C(=N/O)C(F)(F)F)c1cccs1
2. Cc1cccc(C)c1N1C(=O)C(=O)C(c2nc3ccccc3s2)/C(=N/NC(=O)c2ccccc2O)C1=O (stereo not given)
3. COc1ccc(C(=O)CC2=Nc3nnc(CCCCCCCc4nnc5n4C(=O)C(CC(=O)c4ccc(OC)cc4)=N5)n3C2=O)cc1
4. CC(=O)NC(CSC1=C2NC(=O)\C=C/C=C/C=C\C(C)C(O)CC(=O)/C(C)=C\CC(O)/C=C/C(C)C(O)C(C)C=C(C)C(=O)c3c(O)c(C)cc(c3C1=O)C2=O)C(=O)O (stereo not given)

> 100 µM
> 92 µM
> 100 µM
> 100 µM

###

tested on: BT-549 breast; experiment: NCI tumour cell line growth inhibition, 48 h; in the data active means GI50 below about 0.43 µM; inactive means the rest
Outcome field: choose from yes (1) for active, no (0) for inactive

Take a look at these entries with their results.
| record-smiles | category |
| --- | --- |
| O=C(CI)Nc1ccc(O)c2ccccc12 | no (0) |
| Cc1ccc2c(c1)C(=O)c1c-2c(OCCCN(C)C)nc2ccccc12 | no (0) |
| CC(=O)O[C@H]1C(=O)[C@@]2(C)[C@H]([C@H](OC(=O)c3ccccc3)[C@]3(O)C[C@H](OC(=O)[C@H](OC(=O)OC[C@H]4COC(C)(C)O4)[C@@H](NC(=O)c4ccccc4)c4ccccc4)C(C)=C1C3(C)C)[C@]1(OC(C)=O)CO[C@@H]1C[C@@H]2O | yes (1) |

Now examine the next entry.
Write down the call the test reported for this compound. Item: `CC(=O)/C=C/C1=C(c2csc3ccccc23)c2ccccc2CC1`
no (0)

###

system: SNB-75 CNS; assay: NCI tumour cell line growth inhibition, 48 h
Provide the reported TGI of each item.
Give bare numbers, in µM.

| compound | target-or-test-system | TGI (µM) |
| --- | --- | --- |
| O=CN1N=C(c2cccc(Nc3ccnc4cc(Cl)ccc34)c2)CC1c1ccccc1 (centres undefined) | SNB-75 CNS | 1.83 |

In the following, a different compound is considered.
Fill in the blank: the reported TGI of `O=C(c1ccccc1)c1c(C(F)(F)F)n([O-])c2cc(C(F)(F)F)ccc2[n+]1=O` is ____.
3.05

###

test system: COLO 205 colon; test: NCI tumour cell line growth inhibition, 48 h
Provide the reported TGI of each item.

// each compound listed below needs its TGI
1. CC(=O)O[C@H]1C[C@@H](OC(C)=O)[C@@](C)(O)[C@@H]2[C@@H](OC(C)=O)[C@@]3(O)[C@H](/C=C(/CO)[C@H]4O[C@H]4[C@@H](OC(C)=O)[C@@]12C)OC(=O)[C@@H]3C
2. Cc1ccc(S(=O)(=O)C2=c3nc4ccccc4cc3=C3C(=O)c4ccccc4C(=O)C32)cc1 (stereo unspecified)

> 25 µM
> 100 µM

// each compound listed below needs its TGI
1. COc1ccc(NC(=O)c2sc3nc(C)c(C(=O)/C=C/c4cccc(OC)c4)cc3c2N)cc1
2. CCCCCCCC/C=C1\CCC(CN2CCOCC2)C1=O (stereo unspecified)
3. CCN(CC)CCn1c(=O)c2c(C)c3oc4ccccc4oc3c(C)c2c1=O
4. CC(C(=O)c1ccccc1)C1(O)C(=O)Nc2ccc(Cl)cc21 (stereo unspecified)
5. CCOC1NC(=O)Oc2cc3ccccc3cc21 (stereo unspecified)
6. Cn1nc(C(F)(F)F)c(-c2cc(C(F)(F)F)cc(C(F)(F)F)c2)c1-c1ccc(OCc2ccc(Cl)cc2)cc1O
7. NCCCNOCCCN

1: 10.9 µM; 2: 17.3 µM; 3: > 100 µM; 4: > 100 µM; 5: > 100 µM; 6: 3.36 µM; 7: > 100 µM

// each compound listed below needs its TGI
1. CCn1c2c(c3ccccc31)[C@@H](c1ccc(Cl)cc1)CC1C(=O)N(c3ccccc3)C(=O)C21 (stereo partly specified)
2. N/N=C(\c1nc2ccc(Cl)cc2[nH]c1=O)C(O)c1ccc(Cl)c(Cl)c1 (stereo unspecified)
3. CC(C(=O)c1ccncc1)c1ccccn1 (stereo unspecified)
4. C1CN(P2(N3CC3)=NP(N3CC3)(N3CC3)=NP(N3CC3)(N3CC3)=N2)CCO1 (stereo unspecified)
5. O=C(c1ccccc1)c1c(C(F)(F)F)n([O-])c2cc(C(F)(F)F)ccc2[n+]1=O
6. O=C(C#Cc1ccccc1)C1=Cc2ccccc2OC1
7. O=C(Nc1ccccc1-c1nn(CN2CCNCC2)c(=S)n(CN2CCNCC2)c1=O)C(F)(F)F
8. Cn1c2ccccc2c2cc(N3CCCC3)c3c(c21)C(=O)N(c1ccccc1)C3=O

1: > 100 µM; 2: > 100 µM; 3: > 100 µM; 4: > 100 µM; 5: 3.27 µM; 6: 3.93 µM; 7: 31 µM; 8: > 100 µM

###

test system: MDA-MB-435; experiment: NCI tumour cell line growth inhibition, 48 h
Provide the reported TGI of each item.
One number for each entry, in µM.

The cases that follow already have their TGI on record.
| molecule | u | recorded-result |
| --- | --- | --- |
| C[C@H]1COCCN1c1cc(C2(S(=O)(=O)C3CC3)CC2)nc(-c2ccc(NC(=S)NCCO)cc2)n1 | µM | 1.19 |
| Clc1ccc2nc(CI)c(CI)nc2c1 | µM | 14.4 |
| CCOC(=O)/C=C(\C(=O)OCC)n1cc(Cl)c(=O)n(CC(=O)OCC)c1=O | µM | 35.5 |

// each molecule listed below needs its TGI
1. O=C(C#Cc1ccccc1)C1=Cc2ccccc2OC1
2. CN(C)CCCC1(c2ccc(F)cc2)OCc2cc(-c3cc4ccccc4s3)ccc21 (stereo not given)
3. Cn1nc(C(F)(F)F)c(-c2cc(C(F)(F)F)cc(C(F)(F)F)c2)c1-c1ccc(OCc2ccc(Cl)cc2)cc1O

1. 12.5
2. 3.32
3. 8.03

###

system: ACHN renal; experiment: NCI tumour cell line growth inhibition, 48 h
Provide the reported GI50 of each item.

The cases that follow already have their GI50 on record.
| record-smiles | GI50 |
| --- | --- |
| Nc1nc2cc(CC[C@H]3C[C@@H](n4ccc5c(N)ncnc54)[C@H](O)[C@@H]3O)ccc2cc1Br | 12.3 µM |
| Cc1cc(OCCOCCC(F)(F)P(=O)(O)O)ccc1CCc1cnc2c(N)nc3cc(CCC(=O)O)ccc3c2c1 | > 100 µM |
| O=C(CI)Nc1ccc(O)c2ccccc12 | 1.49 µM |
| O=C(c1ccccc1)c1c(C(F)(F)F)n([O-])c2cc(C(F)(F)F)ccc2[n+]1=O | 1.54 µM |

In the following, a different compound is considered.
Fill in the blank: the reported GI50 of `Cc1ccc2c(c1)C(=O)c1c-2c(OCCCN(C)C)nc2ccccc12` is ____.
0.731 µM

###

tested on: HS 578T breast; assay: NCI tumour cell line growth inhibition, 48 h
*1 amine or outer side, *2 acyl side, *3 side chain or, on linkers, in order; H or OH if unused. Where a SMILES comes first, the peptide text is derived from it. Bridges are numbered along the chain shown (N, C = ends). Roman numbers before positions name the chains, in order. [ ]: non-standard residue; d: D form. Actinocin(9to1) = Cc1c2oc3c(C)ccc(C(=O)[*:1])c3nc-2c(C(=O)[*:2])c(N)c1=O; Hyp = O=C(O)[CH]1C[CH](O)CN1; NMeV = CN[CH](C(=O)O)C(C)C; Sar = CNCC(=O)O
Provide the reported TGI of each item.

The cases that follow already have their TGI on record.
| molecule | TGI |
| --- | --- |
| CC(=O)/C=C/C1=C(c2csc3ccccc23)c2ccccc2CC1 | > 100 µM |
| O=C1C=Cc2c1ccc1ccccc21 | 54.6 µM |
| Cc1cc(Nc2ccc(NS(C)(=O)=O)cc2)c2c(ccc3nccc32)[nH]1 | > 100 µM |
| Cc1c2oc3c(C)ccc(C(=O)NC4C(=O)NC(C(C)C)C(=O)N5CC(O)CC5C(=O)N(C)CC(=O)N(C)C(C(C)C)C(=O)OC4C)c3nc-2c(C(=O)NC2C(=O)NC(C(C)C)C(=O)N3CC(O)CC3C(=O)N(C)CC(=O)N(C)C(C(C)C)C(=O)OC2C)c(N)c1=O (stereo not drawn) (I: TV[Hyp][Sar][NMeV] / II: TV[Hyp][Sar][NMeV]; ester I:1-I:C, II:1-II:C; linker I:N-II:N via Actinocin(9to1); configuration not given here) | > 1 µM |
| COC(=O)c1c(C)cccc1C1CN=NC12Cc1cc(C)cc(C)c1C2=O (stereo not drawn) | > 100 µM |
| C/C=C(\C)C(=O)O[C@@H]1CC(C)(C)CC2C3=CCC4[C@]56CC[C@](O)(OC5)C(C)(C)C6CC[C@@]4(C)C3(C)CC[C@]21C(=O)O (stereo partly drawn) | > 100 µM |
| CCCCCCCC/C=C1\CCC(CN2CCOCC2)C1=O (stereo not drawn) | 50.6 µM |
| O=C(c1cccs1)N1CCCN(C(=O)c2cccs2)C1=S | > 100 µM |
| C[C@H]1CNC(=O)c2cnn3ccc(nc23)N[C@H](C)c2cc(F)ccc2O1 | 2.76 µM |
| CCOC1NC(=O)Oc2cc3ccccc3cc21 (stereo not drawn) | > 100 µM |

// each molecule listed below needs its TGI
1. Cc1c(Cl)cccc1NC(=O)/C=C/c1ccccc1
2. N/C(=N\Nc1ccc(Cl)cc1)c1cnccn1
3. Cc1[nH]c(N)nc(=S)c1CCC(=O)O
4. O=C(N/N=C\c1cccc2ccccc12)Nc1cccc2ccccc12
5. O=CN1N=C(c2cccc(Nc3ccnc4cc(Cl)ccc34)c2)CC1c1ccccc1 (stereo not drawn)
6. C=CC(=O)N1C/C(=C\c2ccc([N+](=O)[O-])cc2)C(=O)/C(=C/c2ccc([N+](=O)[O-])cc2)C1
7. Cc1cc2n[n+]3[n-]cc(-c4ccccc4)n3c2cc1[N+](=O)[O-]

> 100 µM
> 100 µM
> 100 µM
> 100 µM
3.4 µM
0.804 µM
> 100 µM

Fill in the blank: the reported TGI of `O=[N+]([O-])c1cc(F)ccc1S(=O)(=O)c1ccccc1` is ____.
> 10 µM

// data source = PubChem BioAssay (NCI)
